Biological target: human ether-à-go-go-related gene (hERG) potassium channel (human, UniProt Q12809);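 also: peak tail current of the secondary pulse compared with the same well before compound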
Sequence (Q12809 whole entry, looked up): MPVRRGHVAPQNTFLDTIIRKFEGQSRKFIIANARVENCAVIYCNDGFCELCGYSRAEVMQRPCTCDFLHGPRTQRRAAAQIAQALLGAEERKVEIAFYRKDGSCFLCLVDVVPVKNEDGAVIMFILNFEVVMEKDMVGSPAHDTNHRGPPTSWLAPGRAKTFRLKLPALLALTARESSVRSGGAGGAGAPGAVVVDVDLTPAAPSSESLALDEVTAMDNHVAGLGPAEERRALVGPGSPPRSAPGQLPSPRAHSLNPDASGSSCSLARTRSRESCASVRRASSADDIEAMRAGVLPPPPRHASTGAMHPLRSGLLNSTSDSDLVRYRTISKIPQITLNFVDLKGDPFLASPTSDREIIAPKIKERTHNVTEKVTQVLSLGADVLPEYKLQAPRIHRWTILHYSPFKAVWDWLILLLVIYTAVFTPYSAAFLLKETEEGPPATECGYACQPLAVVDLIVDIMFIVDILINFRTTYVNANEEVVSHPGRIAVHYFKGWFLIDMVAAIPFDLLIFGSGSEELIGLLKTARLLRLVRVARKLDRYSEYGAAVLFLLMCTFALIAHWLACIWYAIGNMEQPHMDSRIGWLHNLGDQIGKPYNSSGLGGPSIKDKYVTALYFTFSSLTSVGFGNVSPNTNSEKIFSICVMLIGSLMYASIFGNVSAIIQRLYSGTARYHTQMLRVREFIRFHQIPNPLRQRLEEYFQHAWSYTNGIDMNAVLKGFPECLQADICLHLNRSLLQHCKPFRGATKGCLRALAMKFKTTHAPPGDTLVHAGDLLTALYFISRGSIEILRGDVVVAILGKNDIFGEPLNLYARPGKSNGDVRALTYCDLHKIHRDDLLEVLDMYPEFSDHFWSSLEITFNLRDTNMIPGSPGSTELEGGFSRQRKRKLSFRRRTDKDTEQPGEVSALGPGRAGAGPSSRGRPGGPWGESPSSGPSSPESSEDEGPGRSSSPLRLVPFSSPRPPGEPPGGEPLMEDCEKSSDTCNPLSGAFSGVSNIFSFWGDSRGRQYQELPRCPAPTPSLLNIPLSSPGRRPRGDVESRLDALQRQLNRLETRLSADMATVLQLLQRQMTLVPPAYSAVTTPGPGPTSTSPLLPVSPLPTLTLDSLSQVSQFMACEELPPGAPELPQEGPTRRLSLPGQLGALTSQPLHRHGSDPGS
Assay: primary screen, population patch clamp on CHO cells stably expressing hERG; higher = less effect of the substance
Hit rate of the full screen: of about 310,000 compounds, about 14,000 (4.5%) showed an effect of 50% or more. The effect is printed as a negative number. For the sample, strong results were picked, then their nearest neighbours and some compounds at random.
OBSERVED_PROPERTY: hERG current change (%, negative = inhibition) at 10uM (%)

> print(dat)
                                    compound  result.unit  reported.value
 1  CCOc1[nH]n(-c2ccccc2)c(=O)c1C=NCc1ccncc1            %             -50
 2  O=C(Cc1ccccc1)N/N=C/C=C/c1ccccc1[N+](=O)[O-]            %            1.71
 3  O=C(CN1CCN(Cc2ccccc2Cl)CC1)N/N=C/C=C/c1ccccc1[N+](=O)[O-]            %           -71.6
 4  Cc1cc(C)nc(N2CCCC(C(=O)Nc3ccc4nc(C)c(C)nc4c3)C2)n1 (stereo not drawn)            %            9.96
 5  O=C(CN1CCN(Cc2ccccc2)CC1)N/N=C/C=C/c1ccco1            %           -47.2
 6  Cc1ccc(-n2[nH]c(C)c(C=NCc3ccncc3)c2=O)cc1            %           -54.5
 7     Cc1[nH]n(-c2ccccc2)c(=O)c1C=NCc1ccco1            %           -10.7
 8  O=C(Cc1cccs1)N/N=C/C=C/c1ccccc1[N+](=O)[O-]            %          -0.125
 9  Cc1cc(C)c(C(=O)N(C)C2CCCN(Cc3ccccc3F)C2)o1 (stereo not drawn)            %          -0.652
10  CCOc1[nH]n(-c2ccccc2)c(=O)c1C=NCc1cccnc1            %           -48.8
11  O=C(COC(=O)CCNS(=O)(=O)c1ccccc1)Nc1ccc(OC(F)F)cc1            %           -60.3
12  Cc1cc(C)c(C(=O)N(CCN(C)C)CC2CCCN(Cc3ccccc3F)C2)o1 (stereo not drawn)            %            7.61
13           CSc1ncccc1C(=O)OCC(=O)NC(C)(C)C            %            10.5
14  NC(=O)NC(=O)COC(=O)CNS(=O)(=O)c1ccc(F)c(F)c1F            %            13.3
15  COc1ccccc1P(=O)(c1ccccc1)c1ccccc1NC(C)=O (stereo not drawn)            %            14.3
16  O=C(CN1CCN(Cc2ccccc2Cl)CC1)N/N=C/C=C/c1ccco1            %           -68.5
17  O=C(O)COc1ccccc1/C=N/NC(=O)CN1CCN(Cc2ccccc2Cl)CC1            %          -0.129
18  O=C(CN1CCN(Cc2ccccc2Cl)CC1)N/N=C/C=C\c1ccccc1[N+](=O)[O-]            %           -76.2
19   Cc1[nH]n(-c2ccccc2)c(=O)c1C=NCCc1ccccc1            %           -12.7
20  O=[N+]([O-])c1ccccc1/C=N\N1CCN(Cc2ccccc2Cl)CC1            %            9.77
21  Cc1ccc(-n2[nH]c(C)c(C=Nc3cc(C)ccn3)c2=O)cc1            %           -1.12
